B1: Azoarcus group I ribozyme (parent)
chain: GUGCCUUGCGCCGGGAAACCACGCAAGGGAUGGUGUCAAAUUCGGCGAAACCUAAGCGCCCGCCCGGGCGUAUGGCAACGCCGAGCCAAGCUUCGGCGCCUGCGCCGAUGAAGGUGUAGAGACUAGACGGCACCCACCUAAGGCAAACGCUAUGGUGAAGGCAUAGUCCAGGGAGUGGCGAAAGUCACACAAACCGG

- Variants of: B1
- Test summary: reverse-splicing fitness (ratio to wild type); higher = more active; in vitro selection; Mg2+ level not given
Record form. Attribute: reverse-splicing fitness. Fill in for each entry.
Could you respond with only the numeric value?

Which reverse-splicing fitness is reported for this variant? C82U A111U A120G A145C C169U 0.00777

Which reverse-splicing fitness is reported for this variant? A111G A120G A145C C150A C169U U176C 0.0129

Which reverse-splicing fitness is reported for this variant? A111C A120G A145G C150U C169A U176A 0.0192

Which reverse-splicing fitness is reported for this variant? C82U A111G A120U A145G C150A C169A U176G 0.00258

Which reverse-splicing fitness is reported for this variant? C82A A145G C150G C169U 0.00998

Which reverse-splicing fitness is reported for this variant? C82U A111U A120U A145G C150A C169U 0.00374

Which reverse-splicing fitness is reported for this variant? C82A A111C C150A U176A 0.0165

Which reverse-splicing fitness is reported for this variant? A111C A120U A145C C150G C169G U176A 0.00265

Which reverse-splicing fitness is reported for this variant? C82A A111U A120G A145G C150G C169U 0.00901

Which reverse-splicing fitness is reported for this variant? C82U A111U A120C A145C C150U C169A U176A 0.0088

Which reverse-splicing fitness is reported for this variant? A111C A145G C150U 0.679

Which reverse-splicing fitness is reported for this variant? A111U A120C A145C U176G 0.0498

Which reverse-splicing fitness is reported for this variant? A111U A120G A145C C169U U176A 0.0455

Which reverse-splicing fitness is reported for this variant? C82U A120C C150A C169A U176G 0.00426

Which reverse-splicing fitness is reported for this variant? C82U A111C A120C A145G C150G C169G 0.00708

Which reverse-splicing fitness is reported for this variant? C82U C150G C169A U176G 0.00612

Which reverse-splicing fitness is reported for this variant? C82A A145G C150G U176C 0.0513

Which reverse-splicing fitness is reported for this variant? C82G A111G A120G A145C C150G C169A U176A 0.0102

Which reverse-splicing fitness is reported for this variant? C82U A111C A120C C150A C169A U176G 0.00712

Which reverse-splicing fitness is reported for this variant? C82G A120C A145U C150G C169U 0.0102

Which reverse-splicing fitness is reported for this variant? A111U A120U A145C C150A U176C 0.00836

Which reverse-splicing fitness is reported for this variant? A111C A120C A145U C150G U176C 0.034

All values here come from the RNAGym collection of RNA variant scans (doi:10.1093/molbev/msab373).
